Overview of recorded selectivity ratio for various compounds
Experiment: Selectivity ratio of IC50 for human BxPC3 cells to IC50 for human IMR90 cells
Assay type: ADME, cell-based, IMR-90
Settings: BxPC3 cells versus IMR90 cells, read-out: Ratio IC50
measured.endpoint: selectivity ratio

[[record]]
compound = "CC1=C(CC(=O)Oc2ccc(OC(=O)CCCO[N+](=O)[O-])c(C(=O)Oc3ccc(-c4cc(=S)ss4)cc3)c2)c2cc(F)ccc2/C1=C\\c1ccc([S+](C)[O-])cc1 (configuration not stated)"
measured_endpoint = "selectivity ratio"
recorded_result = 70

[[record]]
compound = "C[C@H](C(=O)Oc1ccc(-c2cc(=S)ss2)cc1)c1ccc2cc(OC(=O)CCCO[N+](=O)[O-])ccc2c1"
measured_endpoint = "selectivity ratio"
recorded_result = 70

